biological target: Zinc finger protein mex-5 (Caenorhabditis elegans); test: potency of MEX-5 RNA-binding blockers – biochemical, C. elegans, fluorescence polarization, dose response (AID 1960)
Sequence (Q9XUB2 whole entry): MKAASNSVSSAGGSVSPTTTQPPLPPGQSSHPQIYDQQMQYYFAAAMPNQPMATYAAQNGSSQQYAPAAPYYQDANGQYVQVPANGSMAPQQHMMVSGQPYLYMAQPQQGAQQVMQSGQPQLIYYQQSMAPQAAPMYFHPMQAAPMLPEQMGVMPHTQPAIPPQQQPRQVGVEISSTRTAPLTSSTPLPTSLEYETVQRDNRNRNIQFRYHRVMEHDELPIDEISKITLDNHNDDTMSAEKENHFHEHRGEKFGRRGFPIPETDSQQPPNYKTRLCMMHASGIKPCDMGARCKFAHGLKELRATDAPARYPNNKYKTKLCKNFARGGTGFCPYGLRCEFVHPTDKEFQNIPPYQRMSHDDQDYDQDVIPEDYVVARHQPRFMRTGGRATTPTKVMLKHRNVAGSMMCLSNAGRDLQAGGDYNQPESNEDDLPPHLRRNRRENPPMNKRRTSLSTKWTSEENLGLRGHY
Active and inactive are the calls of the source.
Measured EC50 by item
PARAMETER: EC50

> print(dat)
                                 smiles.str  parameter             test.result
1        CN1Cc2c(c(C#N)c(N)n(C)c2=S)CC1(C)C       EC50        29.1 µM (active)
2       CCN1C(=O)/C(=C/c2c(C)nn(C)c2C)SC1=S       EC50   189 µM (inconclusive)
3        COc1ccc(/N=C/c2c(O)ccc3ccccc23)cc1       EC50   > 300 µM (not active)
4  CNC(=O)NC(=O)COC(=O)c1ccc(-n2c(C)ccc2C)cc1       EC50   > 300 µM (not active)
5  COc1ccc(OC)c(S(=O)(=O)Nc2ccc(O)c(Sc3nc[nH]n3)c2)c1       EC50  17.7 µM (inconclusive)
6  CCCCNC(=O)c1cc2c(=O)n3cccc(C)c3nc2n(Cc2ccncc2)c1=N       EC50  39.6 µM (inconclusive)

----------
Please consider the recorded AC50 for Cytochrome P450 1A2 (Homo sapiens, UniProt P05177) in what follows.
PARAMETER: AC50

> print(dat)
                                   molecule  parameter             test.result
1       N=c1sccn1CC(=O)Nc1cccc(Oc2ccccc2)c1       AC50  6.31 µM (inconclusive)
2  COC(=O)[C@@]1(Cc2ccc(F)cc2)[C@H]2c3cc(C(=O)N4CCCC4)n(CCc4ccc(O)c(O)c4)c3C[C@H]2CN1C(=O)c1ccccc1       AC50    20 µM (inconclusive)
3  COC(=O)c1ccc(C#CC(NP(=O)(c2ccccc2)c2ccccc2)c2ccccc2)cc1 (stereo not drawn)       AC50    20 µM (inconclusive)

----------
assay: HIV-1 AD8 envelope cell-cell fusion blockers – cherry-pick, dose response (AID 652062); format: functional, cell-based;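 note: luciferase signal from cell-cell fusion driven by HIV-1 clade B AD8 Env; potency is for inhibitors of fusion seen as a drop in luminescence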
Calls of active or inactive are those of the source.
Let's look at some compounds and their measured AC50.
PARAMETER: AC50

> print(dat)
                                 smiles.str       test.result
1            CCCOc1ccc2ccccc2c1/C=N/n1cnnc1  18.5 µM (active)
2  Cc1ccc(S(=O)(=O)N2CCCCC2)cc1C(=O)NCCC1=CCCCC1  17.1 µM (active)
3  C[C@@H]1CN([C@@H](C)CO)C(=O)Cc2cc(NC(=O)Nc3ccc4c(c3)OCO4)ccc2O[C@H]1CN(C)Cc1ccc(Cl)c(Cl)c1    25 µM (active)
4  COC(=O)N1[C@H](C)C=C[C@]1(Cc1ccccc1)C(=O)NCCCNc1ncc(C(F)(F)F)cc1Cl  11.9 µM (active)
5  CC(C)(COC(=O)C(c1ccccc1)c1ccccc1)CN1CCOCC1  1.83 µM (active)

----------
target: Paired box protein Pax-8 (Homo sapiens, UniProt Q06710); test: PAX8 transcriptional activity inhibition in RMG-I – RMG-I cells, luciferase, cherry-pick, dose response (AID 687027); type: functional, cell-based;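 note: luciferase reporter driven by Pax8 target thyroperoxidase promoter measured by SteadyGlo luminescence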
Sequence (Q06710 whole entry): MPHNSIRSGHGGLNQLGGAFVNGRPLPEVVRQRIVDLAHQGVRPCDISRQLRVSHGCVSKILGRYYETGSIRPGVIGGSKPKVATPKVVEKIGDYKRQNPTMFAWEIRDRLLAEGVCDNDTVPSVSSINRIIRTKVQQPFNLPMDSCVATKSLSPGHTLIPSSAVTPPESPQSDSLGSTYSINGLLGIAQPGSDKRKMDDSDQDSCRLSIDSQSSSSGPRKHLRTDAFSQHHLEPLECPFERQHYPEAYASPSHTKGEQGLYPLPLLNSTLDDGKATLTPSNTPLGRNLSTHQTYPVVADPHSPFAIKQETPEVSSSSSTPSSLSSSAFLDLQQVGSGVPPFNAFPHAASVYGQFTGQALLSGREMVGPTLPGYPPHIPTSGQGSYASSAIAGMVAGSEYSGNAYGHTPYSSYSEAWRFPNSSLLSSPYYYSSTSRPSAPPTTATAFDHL
Activity calls are given as the source filed them.
PARAMETER: AC50

> print(dat)
                                   molecule       test.result
1  COc1ccccc1S(=O)(=O)N(C)C[C@H]1Oc2cc(C#CCC3CCCC3)ccc2S(=O)(=O)N([C@@H](C)CO)C[C@@H]1C  7.59 µM (active)
2  COc1cccc(-c2nc(CS(=O)(=O)CC(=O)NCCCN3CC(C)CC(C)C3)c(C)o2)c1 (configuration not stated)  19.1 µM (active)
3  C#CCN(C[C@@H]1[C@@H](OC(=O)NCc2ccccc2F)[C@@H](OC(=O)NCc2ccccc2F)Cn2c(=O)ccc(=O)n21)S(=O)(=O)c1ccc(C)cc1  5.52 µM (active)
4  Oc1nc2ccccc2n1C1CCN(C(c2cccc3ccccc23)c2nnnn2-c2ccc3c(c2)OCCO3)CC1 (configuration not stated)  3.78 µM (active)
5  C[C@@H]1CN([C@H](C)CO)C(=O)c2cc(NC(=O)CCCCCC(=O)Nc3ccccc3N)ccc2O[C@@H](C)CCCCO[C@H]1CN(C)Cc1ccc(Cl)c(Cl)c1  12.2 µM (active)
6  NS(=O)(=O)c1ccc(CCN2C(=O)/C(=C\c3ccc(Cl)cc3)SC2=S)cc1  3.81 µM (active)
7  COc1ccc(S(=O)(=O)Nc2ccc3c(c2)C(=O)N([C@@H](C)CO)C[C@H](C)[C@@H](CN(C)Cc2ccc(C(F)(F)F)cc2)OCCCC[C@@H](C)O3)cc1  9.62 µM (active)
